Entry source: ChEMBL document CHEMBL1156824

Species: Homo sapiens
Experiment: Hepatic clearance in human
Settings: in vivo
Would you mind labelling by CL? At or over 1 mL/min/kg is 1, under is -1.

[[record]]
compound = "c1ccc2c(c1)OCC(C1=NCCN1)O2 (configuration not stated)"
label = 1

[[record]]
compound = "CCN(CC)CCNC(=O)c1ccc(NS(C)(=O)=O)cc1 [SEMATILIDE]"
label = -1

[[record]]
compound = "O=C(O)c1cc(/N=N/c2ccc(O)c(C(=O)O)c2)ccc1O"
label = -1

[[record]]
compound = "CC[C@H]1OC(=O)[C@H](C)[C@@H](O[C@H]2C[C@@](C)(OC)[C@@H](O)[C@H](C)O2)[C@H](C)[C@@H](O[C@@H]2O[C@H](C)C[C@H](N(C)C)[C@H]2O)[C@](C)(O)C[C@@H](C)CN(C)[C@H](C)[C@@H](O)[C@]1(C)O"
label = 1

[[record]]
compound = "CN1C(=O)C(O)N=C(c2ccccc2Cl)c2cc(Cl)ccc21 (configuration not stated)"
label = 1

[[record]]
compound = "O=C(O)[C@H]1/C(=C/CO)O[C@@H]2CC(=O)N21"
label = 1

[[record]]
compound = "CCN(CC)CCNC(=O)c1cc(Cl)c(N)cc1OC [METOCLOPRAMIDE]"
label = 1

[[record]]
compound = "Nc1ccn([C@H]2CC[C@@H](CO)O2)c(=O)n1"
label = 1

[[record]]
compound = "C[C@@H]1[C@H](O)[C@@H](C)/C=C/C=C/C=C/C=C/C=C/C=C/C=C/[C@H](O[C@@H]2O[C@H](C)[C@@H](O)[C@H](N)[C@@H]2O)C[C@@H]2O[C@](O)(C[C@@H](O)C[C@@H](O)[C@H](O)CC[C@@H](O)C[C@@H](O)CC(=O)O[C@H]1C)C[C@H](O)[C@H]2C(=O)O"
label = -1

[[record]]
compound = "C[C@H]1COc2c(N3CCN(C)CC3)c(F)cc3c(=O)c(C(=O)O)cn1c23.C[C@H]1COc2c(N3CCN(C)CC3)c(F)cc3c(=O)c(C(=O)O)cn1c23.O"
label = -1

[[record]]
compound = "CN(C)C(=O)Oc1cccc([N+](C)(C)C)c1.[Br-] [NEOSTIGMINE BROMIDE]"
label = 1

[[record]]
compound = "C=CC[C@@H]1/C=C(\\C)C[C@H](C)C[C@H](OC)[C@H]2O[C@@](O)(C(=O)C(=O)N3CCCC[C@H]3C(=O)O[C@H](/C(C)=C/[C@@H]3CC[C@@H](O)[C@H](OC)C3)[C@H](C)[C@@H](O)CC1=O)[C@H](C)C[C@@H]2OC [TACROLIMUS ANHYDROUS]"
label = -1

[[record]]
compound = "Cc1ccnc2c1NC(=O)c1cccnc1N2C1CC1"
label = -1

[[record]]
compound = "CC1=C(C(=O)O)N2C(=O)[C@@H](NC(=O)[C@H](N)C3=CCC=CC3)[C@H]2SC1"
label = -1

[[record]]
compound = "Cc1cccc(C)c1NC(=O)C(C)N (configuration not stated) [TOCAINIDE]"
label = 1

[[record]]
compound = "CC(C)c1nc(N(C)S(C)(=O)=O)nc(-c2ccc(F)cc2)c1/C=C/[C@@H](O)C[C@@H](O)CC(=O)O"
label = 1

[[record]]
compound = "Cc1nnc2n1-c1ccc(Cl)cc1C(c1ccccc1)=NC2"
label = -1

[[record]]
compound = "C[C@@H]1C[C@H]2[C@@H]3CCC4=CC(=O)C=C[C@]4(C)[C@@]3(F)[C@@H](O)C[C@]2(C)[C@@]1(O)C(=O)CO"
label = 1

[[record]]
compound = "Cc1cc(=O)n(-c2ccccc2)n1C [ANTIPYRINE]"
label = -1

[[record]]
compound = "CCOc1ccccc1OCCN[C@H](C)Cc1ccc(OC)c(S(N)(=O)=O)c1"
label = -1

[[record]]
compound = "Nc1nnc(-c2cccc(Cl)c2Cl)c(N)n1"
label = -1

[[record]]
compound = "C=CC1=C(C(=O)O)N2C(=O)[C@@H](NC(=O)/C(=N\\OCC(=O)O)c3csc(N)n3)[C@H]2SC1"
label = -1

[[record]]
compound = "Nc1nc2c(ncn2CCC(CO)CO)c(=O)[nH]1"
label = 1

[[record]]
compound = "CN/C(=N/CCSCc1nc[nH]c1C)NC#N"
label = -1

[[record]]
compound = "O=c1[nH]cnc2c1ncn2[C@H]1CC[C@@H](CO)O1"
label = 1

[[record]]
compound = "Cc1c(OCC(F)(F)F)ccnc1C[S+]([O-])c1nc2ccccc2[nH]1 (configuration not stated)"
label = 1

[[record]]
compound = "CN(C)CCC(c1ccc(Cl)cc1)c1ccccn1 (configuration not stated)"
label = 1

[[record]]
compound = "Nc1ccn(C[C@@H](CO)OCP(=O)(O)O)c(=O)n1.O.O"
label = -1

[[record]]
compound = "CCNCC(O)c1cccc(O)c1 (configuration not stated)"
label = 1

[[record]]
compound = "O=C(NCCNCC(O)COc1ccc(O)cc1)N1CCOCC1 (configuration not stated)"
label = 1

[[record]]
compound = "CCCCc1ncc(/C=C(\\Cc2cccs2)C(=O)O)n1Cc1ccc(C(=O)O)cc1"
label = 1

